# ASSAY_NOTES: Gravimetric vapour sorption (GVS), water vapour adsorption
# Format: physicochemical
# EXPERIMENTAL_PARAMETERS: 90 % RH
# From the text: GVS is a method traditionally used to detect quantitative weight changes of samples as a function of the relative humidity (RH). […] The corresponding weight change is continuously recorded via an ultra-microbalance. […] The equilibrium between sample and humidity can be determined from this information. • Sorption isotherms: • The equilibrium weight changes at each humidity are related to the dry mass of the sample (i.e. the equilibrium mass at 0% RH). […]
VALUE_TYPE: Water Adsorption (wt %)

{"COMPOUND": "CCCCC1=NC2(CCCC2)C(=O)N1Cc1ccc(-c2ccccc2-c2nnn[nH]2)cc1 [Sample C, irbesartan]", "VALUE_TYPE": "Water Adsorption", "RECORDED_VALUE": 0.31}
{"COMPOUND": "CCCCC1=NC2(CCCC2)C(=O)N1Cc1ccc(-c2ccccc2-c2nnn[nH]2)cc1 [Sample D, irbesartan]", "VALUE_TYPE": "Water Adsorption", "RECORDED_VALUE": 0.63}
{"COMPOUND": "CCCCC1=NC2(CCCC2)C(=O)N1Cc1ccc(-c2ccccc2-c2nnn[nH]2)cc1 [Sample A, irbesartan]", "VALUE_TYPE": "Water Adsorption", "RECORDED_VALUE": 0.52}
{"COMPOUND": "CCCCC1=NC2(CCCC2)C(=O)N1Cc1ccc(-c2ccccc2-c2nnn[nH]2)cc1 [Sample B, irbesartan]", "VALUE_TYPE": "Water Adsorption", "RECORDED_VALUE": 0.28}

Hey, just so you know, these numbers are from patent US20090312380A1.
